- assay.summary: Toxicity liver stage against HepG2, at 10uM
- Type: cell-based
- Design: test concentration 10 uM, cell line HepG2-A16-CD81EGFP
- conditions.used: human, HepG2-A16-CD81EGFP cells; read-out: INHIBITION
Reported cytotoxicity at 10 µM is given for each of the following compounds.

[
  {
    "compound": "Cc1ccc(-n2nnnc2SCN2CCCCC2=O)cc1C",
    "cytotoxicity at 10 µM (%)": -46.6
  },
  {
    "compound": "CN(C)C[C@H]1OC[C@@H]2CCN(C(=O)NCc3cccc(F)c3)C[C@@H]21",
    "cytotoxicity at 10 µM (%)": 6.98
  },
  {
    "compound": "CS(=O)(=O)NCCNC(=O)NC1(c2ccc(F)cc2)CCCC1",
    "cytotoxicity at 10 µM (%)": -1.44
  },
  {
    "compound": "Cc1cc(C)c2[nH]c(C(=O)NCCN3CCCC3=O)c(C)c2c1",
    "cytotoxicity at 10 µM (%)": 2.49
  },
  {
    "compound": "CSCc1cccc(S(=O)(=O)Nc2cc(C)on2)c1",
    "cytotoxicity at 10 µM (%)": 6.27
  },
  {
    "compound": "CCN(CC)CCNC(=O)CCc1c(C)nn(-c2ccccc2Cl)c1C",
    "cytotoxicity at 10 µM (%)": -0.61
  },
  {
    "compound": "CC(C)c1ccc(OCC(=O)N2CCOCC2c2ncon2)cc1 (stereo unspecified)",
    "cytotoxicity at 10 µM (%)": -9.01
  },
  {
    "compound": "COCCN1C(=O)[C@]2(CC[C@@H]3CN(C(=O)NC4CCCC4)C[C@@H]32)N=C1C",
    "cytotoxicity at 10 µM (%)": -8.85
  },
  {
    "compound": "O=C(NC1CCS(=O)(=O)C1)c1ccccc1SCc1cscn1 (stereo unspecified)",
    "cytotoxicity at 10 µM (%)": -1.53
  },
  {
    "compound": "Cc1occc1C(=O)N1CCCN(Cc2nccn2C)CC1",
    "cytotoxicity at 10 µM (%)": -1.56
  },
  {
    "compound": "CN1CC(C(=O)NC2(c3cccc(F)c3)CCOCC2)CC1=O (stereo unspecified)",
    "cytotoxicity at 10 µM (%)": 15.6
  }
]

----------
Entries and their measured cytotoxicity at 10 µM follow.
- assay.summary: Toxicity liver stage against HepG2, at 10uM
- Assay type: cell-based
- Parameters: test concentration 10 uM, cell line HepG2-A16-CD81EGFP
- conditions.used: human, HepG2-A16-CD81EGFP cells; read-out: INHIBITION

[
  {
    "compound": "COc1cccc(NC(=O)CNc2ccc(C(=O)N(C)C)c(Cl)c2)c1",
    "cytotoxicity at 10 µM / %": 6.91
  },
  {
    "compound": "CCCC(=O)N1C[C@@H]2CCN(c3cnccn3)C[C@@H]2C1",
    "cytotoxicity at 10 µM / %": -1.48
  },
  {
    "compound": "O=C(N[C@H]1COC[C@@H]1N1CCCC1)c1csc(-c2cccs2)n1",
    "cytotoxicity at 10 µM / %": 9.71
  },
  {
    "compound": "CCNC(=O)NCC1(CN2CCOCC2)CCCCC1",
    "cytotoxicity at 10 µM / %": 6.73
  },
  {
    "compound": "CCn1cc(NC(=O)C2CCN(Cc3noc(C(C)C)n3)CC2)cn1",
    "cytotoxicity at 10 µM / %": 0.89
  },
  {
    "compound": "CCC(C)N(Cc1sccc1C)C(=O)c1ccc2cccnc2n1 (centres undefined)",
    "cytotoxicity at 10 µM / %": 2.05
  },
  {
    "compound": "CN1CCC(N(CCc2ccccc2)C(=O)c2ccoc2)CC1",
    "cytotoxicity at 10 µM / %": -5.42
  },
  {
    "compound": "CN1CCCC2(CC1)CCN(C(=O)CCc1ccccc1O)CC2",
    "cytotoxicity at 10 µM / %": -32.1
  },
  {
    "compound": "Cn1cc(NC(=O)CNC(=O)N2CCN(c3ccc(Cl)cc3)CC2)cn1",
    "cytotoxicity at 10 µM / %": 6.9
  },
  {
    "compound": "CCC(C)NC(=O)CCc1ccnc2ccccc12 (centres undefined)",
    "cytotoxicity at 10 µM / %": 5.44
  },
  {
    "compound": "CCc1nsc(N2CCN(C(=O)COc3ccccc3)CC2)n1",
    "cytotoxicity at 10 µM / %": -3.49
  },
  {
    "compound": "NC(=O)N1CCC(C(=O)NCc2nncn2-c2ccccc2)CC1",
    "cytotoxicity at 10 µM / %": -18.7
  },
  {
    "compound": "C[C@@H]1CN(S(C)(=O)=O)C[C@]12CCN(Cc1cccnc1)C2=O",
    "cytotoxicity at 10 µM / %": 0.169
  },
  {
    "compound": "CNC(=O)COC1COC2(CCN(c3ccc(C#N)cc3)CC2)C1 (centres undefined)",
    "cytotoxicity at 10 µM / %": -75.7
  },
  {
    "compound": "CO[C@H]1CCN(C(=O)c2ccc3oc(C)cc3c2)C[C@@]12CCCO2",
    "cytotoxicity at 10 µM / %": 25.9
  },
  {
    "compound": "CN(C)c1nccc(N(C)Cc2ncnn2C)n1",
    "cytotoxicity at 10 µM / %": 6.09
  },
  {
    "compound": "CC1COCCN1Cc1nc(-c2ccsc2)no1 (centres undefined)",
    "cytotoxicity at 10 µM / %": -17.8
  },
  {
    "compound": "O=C(COCc1ccccc1)N1CCCn2cncc2C1",
    "cytotoxicity at 10 µM / %": 0.375
  },
  {
    "compound": "Cc1ccc(C(=O)NC2CCN(S(C)(=O)=O)CC2)c(=O)[nH]1",
    "cytotoxicity at 10 µM / %": 15.7
  },
  {
    "compound": "CN(C)c1cc(C(=O)NCCc2n[nH]c(=O)[nH]2)ccn1",
    "cytotoxicity at 10 µM / %": -1.89
  },
  {
    "compound": "Cc1nc(N2CCC3(CCOC3)C2)c2cc[nH]c2n1 (centres undefined)",
    "cytotoxicity at 10 µM / %": -2.95
  },
  {
    "compound": "CSCCC(=O)N1C[C@@H](C)[C@](O)(C(C)C)C1",
    "cytotoxicity at 10 µM / %": 0.68
  },
  {
    "compound": "Cc1oc(-c2ccco2)nc1CC(=O)N1CCN(CC(C)(C)O)CC1",
    "cytotoxicity at 10 µM / %": 0.626
  },
  {
    "compound": "COCCN1CCCC(O)(CN2CCN(c3cnccn3)CC2)C1=O (centres undefined)",
    "cytotoxicity at 10 µM / %": 4.04
  }
]

----------
- assay.summary: Toxicity liver stage against HepG2, at 10uM
- Format: cell-based
- Parameters: test concentration 10 uM, cell line HepG2-A16-CD81EGFP
- conditions.used: human, HepG2-A16-CD81EGFP cells; read-out: INHIBITION

[
  {
    "molecule": "COc1ccc(N(Cc2ccco2)C(=O)C2CCCO2)cc1F (stereo unspecified)",
    "cytotoxicity at 10 µM / %": -3.51
  },
  {
    "molecule": "Cc1noc(C)c1CN1CCC2(CC1)CCN(C(=O)c1cscn1)C2",
    "cytotoxicity at 10 µM / %": 1.21
  },
  {
    "molecule": "CC(C)(C)C(NCC(=O)N1CCNC(=O)C1)c1ccccc1 (stereo unspecified)",
    "cytotoxicity at 10 µM / %": -10.7
  },
  {
    "molecule": "NC(=O)CN1CCCN(C(=O)Cc2ccc3ccccc3c2)CC1",
    "cytotoxicity at 10 µM / %": 7.82
  },
  {
    "molecule": "CC(C)NC(=O)c1nc(Cn2c(C(F)(F)F)nc3ccccc32)no1",
    "cytotoxicity at 10 µM / %": 20.7
  },
  {
    "molecule": "Cc1cc(N2CCC(n3cc(CN4CCNCC4)nn3)CC2)ccn1",
    "cytotoxicity at 10 µM / %": -1.83
  }
]

----------
- assay.summary: Toxicity liver stage against HepG2, at 10uM
- Format: cell-based
- Parameters: test concentration 10 uM, cell line HepG2-A16-CD81EGFP
- conditions.used: human, HepG2-A16-CD81EGFP cells; read-out: INHIBITION
reported.endpoint: cytotoxicity at 10 µM (%)

[
  {
    "compound": "CCC(NC1CSCCSC1)c1ccc(S(C)(=O)=O)cc1 (stereo not drawn)",
    "reported.endpoint": "cytotoxicity at 10 µM",
    "number": -8.06
  },
  {
    "compound": "CCOc1ncccc1CNS(=O)(=O)N1CCOCC1",
    "reported.endpoint": "cytotoxicity at 10 µM",
    "number": -10.2
  },
  {
    "compound": "CS(=O)(=O)N1CC2(CCN(c3nccs3)CC2)c2ccccc21",
    "reported.endpoint": "cytotoxicity at 10 µM",
    "number": 0.933
  },
  {
    "compound": "CCn1nc(Br)nc1Sc1ccccc1NC(C)=O",
    "reported.endpoint": "cytotoxicity at 10 µM",
    "number": -6.17
  },
  {
    "compound": "Cc1nc(CN2C(=O)CC[C@H]3[C@@H]2CCN3C(=O)c2ccsc2)cs1",
    "reported.endpoint": "cytotoxicity at 10 µM",
    "number": 1.8
  },
  {
    "compound": "O=C(CC1CC1)N1CCO[C@H]2[C@H](OCCCn3cccn3)CC[C@@H]21",
    "reported.endpoint": "cytotoxicity at 10 µM",
    "number": 6.23
  },
  {
    "compound": "COCC(=O)N[C@H](C)c1onc(-c2ccc(Cl)cc2)c1C(=O)O",
    "reported.endpoint": "cytotoxicity at 10 µM",
    "number": -5.61
  },
  {
    "compound": "O=C(CN(CC(O)c1ccc(F)cc1)C1CC1)Nc1cccnc1 (stereo not drawn)",
    "reported.endpoint": "cytotoxicity at 10 µM",
    "number": -4.19
  },
  {
    "compound": "O=C(c1cccnc1)N1CCCC(Cc2nccs2)C1 (stereo not drawn)",
    "reported.endpoint": "cytotoxicity at 10 µM",
    "number": -2.86
  },
  {
    "compound": "O=C(Cn1cccnc1=O)NCCc1ccc2c(c1)OCCO2",
    "reported.endpoint": "cytotoxicity at 10 µM",
    "number": 4.96
  },
  {
    "compound": "Cc1cnn(CCNCc2nc(-c3ccccn3)no2)c1",
    "reported.endpoint": "cytotoxicity at 10 µM",
    "number": -8
  },
  {
    "compound": "CCN(CC1CCOC1)C(=O)c1cc(OC)c2c(c1)OCCO2 (stereo not drawn)",
    "reported.endpoint": "cytotoxicity at 10 µM",
    "number": -7.35
  },
  {
    "compound": "CCN1CC2(CC1=O)CN(C(=O)NC(C)C)CCN(C(=O)C(C)C)C2 (stereo not drawn)",
    "reported.endpoint": "cytotoxicity at 10 µM",
    "number": 0.508
  },
  {
    "compound": "CCCc1cc(C(=O)N(C)Cc2cccc3cnccc23)n(C)n1",
    "reported.endpoint": "cytotoxicity at 10 µM",
    "number": 0.109
  },
  {
    "compound": "Cc1cc2nc(C(C)C)cc(N[C@H](C(N)=O)C(C)C)n2n1",
    "reported.endpoint": "cytotoxicity at 10 µM",
    "number": -1.66
  },
  {
    "compound": "CC(C)N(Cc1ccccn1)S(=O)(=O)N1CCCC1c1ccco1 (stereo not drawn)",
    "reported.endpoint": "cytotoxicity at 10 µM",
    "number": -3.92
  },
  {
    "compound": "Cc1ccc(O[C@@H]2C[C@H]3CN(Cc4nccn4C)CCN3C2)cc1",
    "reported.endpoint": "cytotoxicity at 10 µM",
    "number": 3.39
  },
  {
    "compound": "O=C(c1cncc(N2CCCC3(CCNCC3)CC2)n1)N1CCCCC1",
    "reported.endpoint": "cytotoxicity at 10 µM",
    "number": -3.38
  },
  {
    "compound": "CNC(=O)[C@H]1C[C@H]2CN(Cc3ccc(OC)cc3)C[C@@H]1O2",
    "reported.endpoint": "cytotoxicity at 10 µM",
    "number": 3.02
  },
  {
    "compound": "CC(C)[C@H]1CN(c2ccncc2)C[C@@H]1NC(=O)C1(C#N)CCOCC1",
    "reported.endpoint": "cytotoxicity at 10 µM",
    "number": -9.21
  },
  {
    "compound": "COc1cccc(C(=O)NCC(c2cccn2C)N2CCCC2)c1OC (stereo not drawn)",
    "reported.endpoint": "cytotoxicity at 10 µM",
    "number": -2.4
  },
  {
    "compound": "Cc1ccnc(NC(=O)c2ccc(F)c(S(=O)(=O)NC3CC3)c2)c1",
    "reported.endpoint": "cytotoxicity at 10 µM",
    "number": 10.4
  },
  {
    "compound": "CC(C)NC(=O)CN(C1CC1)C(C)C1CC1 (stereo not drawn)",
    "reported.endpoint": "cytotoxicity at 10 µM",
    "number": -1.6
  }
]
